- assayed-system: uterine OT receptors (Rattus norvegicus)
- Construct: using a crude membrane preparation of uteri; from tissue; host or cells: uterus of DES-treated rats, crude membrane preparation
- Sequence (P70536 whole entry): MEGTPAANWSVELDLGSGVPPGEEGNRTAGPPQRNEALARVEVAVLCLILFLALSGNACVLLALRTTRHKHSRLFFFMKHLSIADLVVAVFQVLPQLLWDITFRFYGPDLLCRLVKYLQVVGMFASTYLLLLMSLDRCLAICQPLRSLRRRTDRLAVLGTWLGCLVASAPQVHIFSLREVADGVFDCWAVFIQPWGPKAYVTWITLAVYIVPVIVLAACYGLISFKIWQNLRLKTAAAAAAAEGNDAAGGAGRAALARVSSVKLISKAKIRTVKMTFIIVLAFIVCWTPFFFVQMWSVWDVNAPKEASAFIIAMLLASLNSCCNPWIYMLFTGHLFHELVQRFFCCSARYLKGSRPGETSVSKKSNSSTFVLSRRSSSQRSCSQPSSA
- method-notes: [³H]Oxytocin radioligand binding assay, crude membrane preparation of uteri from DES-treated rats
property: IC50

1) Cc1ccccc1N1CCN(S(=O)(=O)C[C@]23CC[C@H](C[C@@H]2NC(=O)[C@H](CCS(C)(=O)=O)NC(=O)Cc2c[nH]cn2)C3(C)C)CC1 | 1.2 nM

---

Listed here: items and their measured IC50.
- assayed-system: uterine OT receptors (Rattus norvegicus)
- Construct: using a crude membrane preparation of uteri; from tissue; host or cells: uterus of DES-treated rats, crude membrane preparation
- method-notes: [³H]Oxytocin radioligand binding assay, crude membrane preparation of uteri from DES-treated rats
- measurement-parameters: competition with 1 nM [³H]OT, 60 minutes, 22°C; concentration that inhibits 50% of OT; read-out: IC50
property: IC50 (µM)

1) Cc1ccccc1N1CCN(S(=O)(=O)C[C@]23CC[C@H](C[C@@H]2NC(=O)Cc2c[nH]cn2)C3(C)C)CC1 | 0.11
2) Cc1ccccc1N1CCN(S(=O)(=O)C[C@]23CC[C@H](C[C@@H]2C(=O)O)C3(C)C)CC1 | 0.26
3) Cc1ccccc1N1CCN(S(=O)(=O)C[C@]23CC[C@H](C[C@@H]2NC(=O)[C@@H](N)CCS(C)(=O)=O)C3(C)C)CC1 | 0.0077
4) Cc1ccccc1N1CCN(S(=O)(=O)C[C@]23CC[C@H](C[C@@H]2N(C)C(=O)[C@@H](N)CCS(C)(=O)=O)C3(C)C)CC1 | 0.0063
5) Cc1ccccc1N1CCN(S(=O)(=O)C[C@]23CC[C@H](C[C@@H]2NC(=O)[C@H](CCS(C)(=O)=O)N(C)C)C3(C)C)CC1 | 0.0054
6) Cc1ccccc1N1CCN(S(=O)(=O)C[C@]23CC[C@H](C[C@@H]2N(C)C(=O)[C@H](CCS(C)(=O)=O)N(C)C)C3(C)C)CC1 | 0.0092
7) Cc1ccccc1N1CCN(S(=O)(=O)CC23CCC(CC2=NO)C3(C)C)CC1 (stereo not drawn) | 0.46
8) Cc1ccccc1N1CCN(S(=O)(=O)C[C@]23CC[C@H](C[C@@H]2NC(=O)C(C)c2c[nH]cn2)C3(C)C)CC1 (stereo partly drawn) | 0.026
9) COC(=O)[C@H]1C[C@H]2CC[C@]1(CS(=O)(=O)N1CCN(c3ccccc3C)CC1)C2(C)C | 0.12
